- Tested on: 6-phosphofructokinase (Trypanosoma brucei)
- assay.name: Confirmatory Assay to Find Inhibitors of T. brucei phosphofructokinase: probe SAR
- experimental.context: recombinant T. brucei PFK, ADP-Glo luminescence; series mostly up to 57.5 µM
- Text: NIH Molecular Libraries Probe Production Network [MLPCN] NIH Chemical Genomics Center [NCGC] Grant: 1 R03 MH092153-01 PI Name: Malcolm Walkinshaw, University of Edinburgh NCGC Assay Overview: Various species of the protozoan family Trypanosomatidae are responsible for a range of serious human diseases in tropical and subtropical areas of the world. […] A luminescence-based assay for T. brucei PFK activity has been developed which uses luciferase to detect production of ADP. […]
Results filed as inconclusive are left out. Activity calls are given as the source filed them. Calls follow the shape of the dose curve; as a rule, active = well fitted inhibition curve with a large enough effect; inconclusive = small, poorly fitted or top-dose-only effect; inactive = no such curve, though single readings can be large or run the other way.
readout.name: Potency

Sample answers from the record:
{"compound.smiles": "COc1ccc(CC(=O)Nc2ccc(S(=O)(=O)Nc3cc(C)on3)cc2)cc1C", "result": "inactive"}
{"compound.smiles": "CN(C)c1cccc(NS(=O)(=O)c2ccc(NC(=O)Cc3ccc(Cl)c(Cl)c3)cc2)c1", "result": "5.8 µM (active)"}
{"compound.smiles": "Cc1cc(N[S+](=O)([O-])c2ccc(NC(=O)Cc3ccc(Cl)nc3)cc2)no1", "result": "20.6 µM (active)"}
{"compound.smiles": "Cc1cc(NS(=O)(=O)c2ccc(NC(=O)CCc3ccc(Cl)c(Cl)c3)cc2)no1", "result": "5.17 µM (active)"}
{"compound.smiles": "COc1ccc(CC(=O)Nc2ccc(S(=O)(=O)Nc3cc(C)on3)cc2)cc1OC", "result": "inactive"}

Below is a list of compounds. For each, state its recorded Potency.
1. Cc1cc(NS(=O)(=O)Cc2ccc(NC(=O)Cc3ccc(Cl)c(Cl)c3)cc2)no1
2. O=C(Cc1ccc(Cl)c(Cl)c1)Nc1ccc(S(=O)(=O)Nc2ccn[nH]2)cc1
3. O=C(Cc1ccc(Cl)c(Cl)c1)Nc1ccc(S(=O)(=O)Nc2ccon2)cc1
4. Cc1cc(NS(=O)(=O)c2ccc(NCCc3ccc(Cl)c(Cl)c3)cc2)no1
5. Cc1cc(N[S+](=O)([O-])c2ccc3cc(NC(=O)Cc4ccc(Cl)c(Cl)c4)ccc3c2)no1
6. O=C(Cc1ccc(Cl)c(Cl)c1)Nc1ccc(S(=O)(=O)O)cc1

1: 2.59 µM (active); 2: 0.517 µM (active); 3: 0.366 µM (active); 4: 4.61 µM (active); 5: 5.8 µM (active); 6: 0.651 µM (active)

====

- System: 6-phosphofructokinase (Trypanosoma brucei)
- assay.name: Confirmatory Assay to Find Inhibitors of T. brucei phosphofructokinase: probe SAR
- experimental.context: recombinant T. brucei PFK, ADP-Glo luminescence; series mostly up to 57.5 µM
Records with an inconclusive call do not appear. The source made the active and inactive calls. The call rests on the fitted dose curve; in most records, active means well fitted inhibition curve with a large enough effect; inconclusive means small, poorly fitted or top-dose-only effect; inactive means no such curve, though single readings can be large or run the other way.
I would appreciate it if you answered using one of these outcomes: label 1 (active), label 0 (inactive)

What call does the record list for O=C(Cc1ccc(Cl)c(Cl)c1)Nc1ccc(S(=O)(=O)Nc2cncnc2)cc1 ?
label 1

What call does the record list for CCOC(=O)c1cccc(NS(=O)(=O)c2ccc(NC(=O)Cc3ccc(Cl)c(Cl)c3)cc2)c1 ?
label 0

What call does the record list for Cc1cc(NS(=O)(=O)c2ccc(NC(=O)Cc3ccc4ccccc4c3)cc2)no1 ?
label 1

What call does the record list for Cc1cc(NS(=O)(=O)c2ccc(NC(=O)Cc3cccc(Cl)c3)cc2)no1 ?
label 1

What call does the record list for Cc1cc(NS(=O)(=O)c2ccc(NC(=O)Cc3ccc(Cl)c(Cl)c3)cc2)on1 ?
label 1

What call does the record list for Cc1cc(NS(=O)(=O)c2ccc(N(C)C(=O)Cc3ccc(Cl)c(Cl)c3)cc2)no1 ?
label 1

What call does the record list for Cc1cc(NS(=O)(=O)c2cccc(NC(=O)Cc3ccc(Cl)c(Cl)c3)c2)no1 ?
label 1

What call does the record list for Cc1cc(NS(=O)(=O)c2ccc(NC(=O)Cc3ccc(Cl)c(C(F)(F)F)c3)cc2)no1 ?
label 1

What call does the record list for Cc1cc(N(C)S(=O)(=O)c2ccc(NC(=O)Cc3ccc(Cl)c(Cl)c3)cc2)no1 ?
label 1
